TGT: HLA-DRB1*0401 (human)
ASSAY_INFO: competition
RUN_CONDITIONS: modification not given
REPORTED_METRIC: IC50 (nM)

[[record]]
binder = "ENLPYLVAYQATVCARAQAP [F209.04]"
reported_metric = "IC50"
unit_of_measure = "nM"
experimental_result = 3.6

[[record]]
binder = "DPMFKYHLTVAQVRG [68.0118]"
reported_metric = "IC50"
unit_of_measure = "nM"
experimental_result = 9.1

[[record]]
binder = "GMVFELANSIVLPFD [68.0123]"
reported_metric = "IC50"
unit_of_measure = "nM"
experimental_result = 230

[[record]]
binder = "KGGRKPARLIVFPDLGVRVC [F209.06]"
reported_metric = "IC50"
unit_of_measure = "nM"
experimental_result = 900

[[record]]
binder = "IPSYKKLIMYSAHDT [68.0048]"
reported_metric = "IC50"
unit_of_measure = "nM"
experimental_result = 510

[[record]]
binder = "HPQWVLTAAHCLKKN [68.0003]"
reported_metric = "IC50"
unit_of_measure = "nM"
experimental_result = 875

[[record]]
binder = "SHDLMLLRLSEPAKI [68.0010]"
reported_metric = "IC50"
unit_of_measure = "nM"
experimental_result = 2240

[[record]]
binder = "GIQYLAGLSTLPGNPAIA [F209.05]"
reported_metric = "IC50"
unit_of_measure = "nM"
experimental_result = 2.7

[[record]]
binder = "TPAETTVRLRAYMNTPGLPV [F209.03]"
reported_metric = "IC50"
unit_of_measure = "nM"
experimental_result = 43

[[record]]
binder = "AYAAQGYKVLVLNPSVAA [F209.02]"
reported_metric = "IC50"
unit_of_measure = "nM"
experimental_result = 3.7

[[record]]
binder = "TYSVSFDSLFSAVKN [68.0128]"
reported_metric = "IC50"
unit_of_measure = "nM"
experimental_result = 73

[[record]]
binder = "DRTLMSAMTNLAALF [68.0030]"
reported_metric = "IC50"
unit_of_measure = "nM"
experimental_result = 13

[[record]]
binder = "AEAVGLPSIPVHPIG [68.0101]"
reported_metric = "IC50"
unit_of_measure = "nM"
experimental_result = 9920

